Experiment: Tacrolimus pharmacokinetic profiles and trough level monitoring before and after switch of booster from ritonavir to cobicistat in an HIV-infected kidney transplant recipient
Assay type: in vivo, human
Conditions: human, plasma, oral, co-administered with darunavir/ritonavir 800/100 mg once daily; 1st pharmacokinetic profile; read-out: T1/2 (elimination half-life) (converted)
measured_quantity: half-life

Lookup: Entry `C=CC[C@@H]1/C=C(\C)C[C@H](C)C[C@H](OC)[C@H]2O[C@@](O)(C(=O)C(=O)N3CCCC[C@H]3C(=O)O[C@H](/C(C)=C/[C@@H]3CC[C@@H](O)[C@H](OC)C3)[C@H](C)[C@@H](O)CC1=O)[C@H](C)C[C@@H]2OC` : reported half-life = ?
Found: 227 h
